Target: DYRK2 (Homo sapiens)
Sequence (Q92630 whole entry): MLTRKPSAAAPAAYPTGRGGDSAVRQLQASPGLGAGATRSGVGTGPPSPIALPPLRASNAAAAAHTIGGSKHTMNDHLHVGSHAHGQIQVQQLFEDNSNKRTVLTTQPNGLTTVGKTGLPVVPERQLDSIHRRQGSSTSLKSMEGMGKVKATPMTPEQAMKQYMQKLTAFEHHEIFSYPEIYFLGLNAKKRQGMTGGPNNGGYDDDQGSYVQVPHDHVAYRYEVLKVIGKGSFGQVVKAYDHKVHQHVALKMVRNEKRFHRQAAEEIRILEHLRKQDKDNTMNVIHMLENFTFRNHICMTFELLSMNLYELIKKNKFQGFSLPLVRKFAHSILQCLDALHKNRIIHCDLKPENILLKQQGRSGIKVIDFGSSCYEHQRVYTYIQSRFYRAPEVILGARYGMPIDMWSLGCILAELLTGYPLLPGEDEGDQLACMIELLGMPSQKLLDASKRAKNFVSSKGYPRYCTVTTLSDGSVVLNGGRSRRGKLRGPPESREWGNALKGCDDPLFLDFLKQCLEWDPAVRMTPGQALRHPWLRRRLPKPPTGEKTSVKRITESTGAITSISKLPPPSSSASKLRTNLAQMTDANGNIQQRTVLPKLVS
Test: HTS ATP-utilizing enzyme assay, off-chip mobility-shift (Caliper HTS 250)
Assay type: biochemical
Conditions: kinase named = inhibitory activity/selectivity; test compound 10 μM; active = greater than three-sigma from mean
RECORDED_METRIC: Activity

                                    compound           test_system  recorded_metric  measured_value
 0  COc1ccc(-c2csc(N(Cc3ccco3)C(=O)CCC(=O)O)n2)cc1  DYRK2 (Homo sapiens)         Activity           DYRK2
 1  CCN(CC)CCCN(C(=O)COc1ccc(C)cc1)c1nc(-c2ccc(OC)cc2)cs1  DYRK2 (Homo sapiens)         Activity           DYRK2
 2   COc1ccc(-c2csc(N(C)C(=O)CCC(=O)O)n2)cc1  DYRK2 (Homo sapiens)         Activity           DYRK2
 3  COc1ccc(-c2csc(N(CCCN3CCOCC3)C(=O)COc3ccccc3)n2)cc1  DYRK2 (Homo sapiens)         Activity           DYRK2
 4  CCC(=O)N(CC1CCCO1)c1nc(-c2ccc(OC)cc2)cs1 (stereo not drawn)  DYRK2 (Homo sapiens)         Activity           DYRK2
 5  COc1ccc(-c2csc(N(CCCN3CCOCC3)C(=O)c3ccco3)n2)cc1  DYRK2 (Homo sapiens)         Activity           DYRK2
 6  COCCCN(C(=O)CCC(=O)O)c1nc(-c2ccc(OC)cc2)cs1  DYRK2 (Homo sapiens)         Activity           DYRK2
 7  COc1ccc(-c2csc(N(CCc3ccc(OC)c(OC)c3)C(=O)CCC(=O)O)n2)cc1  DYRK2 (Homo sapiens)         Activity           DYRK2
 8  COc1ccc(-c2csc(N(CCCN3CCOCC3)C(=O)c3conc3C)n2)cc1  DYRK2 (Homo sapiens)         Activity           DYRK2
 9  COc1ccc(-c2csc(N(CCCN3CCOCC3)C(=O)CC(C)(C)C)n2)cc1  DYRK2 (Homo sapiens)         Activity           DYRK2
10        CCC(=O)N(CC)c1nc(-c2ccc(OC)cc2)cs1  DYRK2 (Homo sapiens)         Activity           DYRK2
11  COc1ccc(-c2csc(N(CCc3ccccc3)C(=O)CCC(=O)O)n2)cc1  DYRK2 (Homo sapiens)         Activity           DYRK2

----------
Target: CHEK2 (Homo sapiens)
Sequence (O96017 whole entry): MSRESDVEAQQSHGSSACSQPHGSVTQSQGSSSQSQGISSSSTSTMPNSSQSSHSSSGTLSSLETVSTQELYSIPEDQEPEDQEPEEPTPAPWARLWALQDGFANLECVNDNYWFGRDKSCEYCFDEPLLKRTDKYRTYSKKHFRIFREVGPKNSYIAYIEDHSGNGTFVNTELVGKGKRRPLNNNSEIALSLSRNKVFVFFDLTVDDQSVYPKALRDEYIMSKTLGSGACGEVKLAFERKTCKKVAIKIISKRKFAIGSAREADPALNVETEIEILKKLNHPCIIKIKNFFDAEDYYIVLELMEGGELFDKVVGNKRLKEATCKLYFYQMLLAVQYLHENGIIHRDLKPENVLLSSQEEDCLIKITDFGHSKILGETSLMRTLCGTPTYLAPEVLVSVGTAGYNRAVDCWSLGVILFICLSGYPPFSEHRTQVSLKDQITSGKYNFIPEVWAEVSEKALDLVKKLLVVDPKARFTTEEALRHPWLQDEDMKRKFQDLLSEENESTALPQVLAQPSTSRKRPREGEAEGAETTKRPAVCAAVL
Experiment: HTS ATP-utilizing enzyme assay, off-chip mobility-shift (Caliper HTS 250)
Format: biochemical
Settings: kinase named = inhibitory activity/selectivity; test compound 10 μM; active = greater than three-sigma from mean
RECORDED_METRIC: Activity

In [3]: df
Out[3]:
                                  structure  recorded_metric  measured_value
0  CCN(CC)CCCN(C(=O)c1ccccc1Cl)c1nc(-c2cc(OC)ccc2OC)cs1         Activity           CHEK2
1  COc1ccc(-c2csc(N(CCCN3CCN(C)CC3)C(=O)c3ccco3)n2)cc1         Activity           CHEK2
2  COc1ccc(-c2csc(N(CCCN3CCN(C)CC3)C(=O)c3ccccc3)n2)cc1         Activity           CHEK2
3  COc1ccc(OC)c(-c2csc(N(CCCN(C)C)C(=O)c3ccccc3F)n2)c1         Activity           CHEK2
4  CN(C)CCCN(C(=O)c1ccccc1F)c1nc(-c2ccccc2)cs1         Activity           CHEK2
